# experimental-system: human (h) α4β2 nAChR (Homo sapiens, UniProt P17787+P43681)
# Construct: Jon Lindstrom; β2: OriGene (clones); host or cells: Xenopus laevis oocytes, cRNA injected
# Sequence (P17787 26-502): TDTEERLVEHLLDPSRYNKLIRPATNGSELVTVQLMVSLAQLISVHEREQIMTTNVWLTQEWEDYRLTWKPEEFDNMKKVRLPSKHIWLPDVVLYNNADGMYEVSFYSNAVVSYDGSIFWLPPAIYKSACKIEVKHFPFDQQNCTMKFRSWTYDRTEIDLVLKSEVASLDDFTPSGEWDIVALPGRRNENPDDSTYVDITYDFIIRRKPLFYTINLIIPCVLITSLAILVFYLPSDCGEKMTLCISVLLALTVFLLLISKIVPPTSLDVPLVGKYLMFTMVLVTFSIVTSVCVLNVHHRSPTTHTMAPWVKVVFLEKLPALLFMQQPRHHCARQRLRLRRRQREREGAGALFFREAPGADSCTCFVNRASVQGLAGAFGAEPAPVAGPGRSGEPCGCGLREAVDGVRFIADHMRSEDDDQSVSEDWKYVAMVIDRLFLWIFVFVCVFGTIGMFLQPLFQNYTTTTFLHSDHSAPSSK
# Sequence (P43681 29-627): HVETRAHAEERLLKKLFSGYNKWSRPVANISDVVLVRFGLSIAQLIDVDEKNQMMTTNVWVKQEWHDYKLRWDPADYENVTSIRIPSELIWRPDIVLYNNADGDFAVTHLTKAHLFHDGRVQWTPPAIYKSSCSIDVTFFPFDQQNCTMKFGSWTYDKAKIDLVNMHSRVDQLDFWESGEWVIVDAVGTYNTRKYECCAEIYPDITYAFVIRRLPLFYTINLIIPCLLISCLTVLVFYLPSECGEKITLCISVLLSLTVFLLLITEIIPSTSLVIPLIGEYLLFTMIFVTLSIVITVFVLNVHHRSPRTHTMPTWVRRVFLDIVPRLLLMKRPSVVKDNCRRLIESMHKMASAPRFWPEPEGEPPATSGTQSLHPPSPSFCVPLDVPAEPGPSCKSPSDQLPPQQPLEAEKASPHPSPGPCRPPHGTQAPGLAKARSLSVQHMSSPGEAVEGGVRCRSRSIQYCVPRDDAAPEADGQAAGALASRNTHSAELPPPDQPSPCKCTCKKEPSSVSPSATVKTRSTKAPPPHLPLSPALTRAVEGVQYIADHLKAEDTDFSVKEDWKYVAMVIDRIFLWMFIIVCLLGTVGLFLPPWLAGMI
# test-details: Two-electrode voltage clamp, inhibition of ACh-evoked currents at hα4β2 nAChR in Xenopus oocytes
# Assay type: cell-based
# settings: compound 100 µM; currents activated by 3 μM ACh; ratio ACh + compound to ACh alone; mean ± SD, n = 6–11
Square brackets hold non-standard residues; d marks the D form. Peptide text beside a SMILES is read from it. Tpi = O=C(O)[C@@H]1Cc2c([nH]c3ccccc23)CN1
measured-attribute: Relative current amplitude (h)α4β2
No unit in the answer, only the number.

Below, 5 compounds whose answers are already recorded.
COC(=O)[C@@H](Cc1ccc(O)cc1)NC(=O)[C@@H](NC(=O)[C@H](NC(=O)[C@@H]1Cc2c([nH]c3ccccc23)CN1)C(C)C)C(C)C [Compound 6, psegynamide F] (H-[Tpi][dV]V[dY]-OMe) :: 0.938
COC(=O)[C@@H](Cc1ccccc1)NC(=O)[C@@H](NC(=O)[C@H](NC(=O)[C@@H](N)Cc1c[nH]c2ccccc12)C(C)C)C(C)C [Compound 2, psegynamide B] (H-W[dV]V[dF]-OMe) :: 0.301
CC(C)[C@H](NC(=O)[C@H](NC(=O)[C@@H](N)Cc1c[nH]c2ccccc12)C(C)C)C(=O)N[C@H](Cc1ccc(O)cc1)C(=O)O [Compound 3, psegynamide C] (H-W[dV]V[dY]-OH) :: 0.793
CC(C)[C@H](NC(=O)[C@H](NC(=O)[C@@H]1Cc2c([nH]c3ccccc23)CN1)C(C)C)C(=O)N[C@H](Cc1ccccc1)C(=O)O [Compound 4, psegynamide D] :: 0.972
COC(=O)[C@@H](Cc1ccccc1)NC(=O)[C@@H](NC(=O)[C@H](NC(=O)[C@@H]1Cc2c([nH]c3ccccc23)CN1)C(C)C)C(C)C [Compound 5, psegynamide E] :: 0.837

From here, focus on the item given below.
Response field Relative current amplitude (h)α4β2 (human (h) α4β2 nAChR (Homo sapiens, UniProt P17787+P43681)) for item CC(C)C(NC(=O)C(N)Cc1c[nH]c2ccccc12)C(=O)NC(C(=O)NC(Cc1ccccc1)C(=O)O)C(C)C (stereo not drawn) [Compound 1, psegynamide A] (H-WVVF-OH; configuration not given here) : 0.637
